// provenance: ChEMBL document CHEMBL4477252

- test_system: Protein kinase C theta type (Homo sapiens)
- Sequence (Q04759 whole entry): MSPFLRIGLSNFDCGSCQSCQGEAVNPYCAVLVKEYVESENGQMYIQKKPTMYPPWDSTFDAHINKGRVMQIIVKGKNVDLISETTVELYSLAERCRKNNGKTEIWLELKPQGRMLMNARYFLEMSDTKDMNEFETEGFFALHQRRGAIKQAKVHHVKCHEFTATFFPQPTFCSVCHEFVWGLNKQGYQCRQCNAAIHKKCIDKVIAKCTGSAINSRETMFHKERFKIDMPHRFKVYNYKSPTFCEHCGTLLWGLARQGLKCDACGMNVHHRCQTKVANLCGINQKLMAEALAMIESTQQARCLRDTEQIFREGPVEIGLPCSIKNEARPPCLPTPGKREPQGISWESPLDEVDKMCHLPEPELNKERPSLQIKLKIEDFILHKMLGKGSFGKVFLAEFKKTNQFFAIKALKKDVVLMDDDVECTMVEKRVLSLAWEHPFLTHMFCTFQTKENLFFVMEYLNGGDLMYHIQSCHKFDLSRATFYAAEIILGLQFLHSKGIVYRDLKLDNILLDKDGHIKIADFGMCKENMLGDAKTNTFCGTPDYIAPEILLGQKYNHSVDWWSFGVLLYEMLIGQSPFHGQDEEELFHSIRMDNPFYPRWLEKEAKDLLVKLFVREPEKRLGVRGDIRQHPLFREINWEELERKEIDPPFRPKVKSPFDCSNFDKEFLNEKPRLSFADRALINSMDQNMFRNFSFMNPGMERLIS
- assay_name: Inhibition of full-length recombinant human His-tagged PRKCQ expressed in baculovirus expression system by Z'-LYTE assay
recorded_metric: pIC50
Friendly reminder that pIC50 comes from taking -log10 of the concentration in mol/L.

Qu. # lookup: pIC50 of Cn1cc(-c2cnc3c(-c4csc(C(=O)N[C@@H]5CCCC[C@@H]5N)c4)cnn3c2)cn1 (racemic)
Ans. 6.57

Qu. Given the molecule `Cc1sc(C(=O)N[C@@H]2[C@H](N)CCCC2(F)F)cc1-c1cnn2cc(Cl)cnc12` , what is its reported pIC50?
Ans. 5.06

Qu. Give its pIC50 value. Item: `O=C(NCC(F)(F)F)c1cc(-c2cnn3cc(-c4ccc(OCCN5CCCCC5)cc4)cnc23)cs1`
Ans. 5.18

---

- test_system: Macrophage colony-stimulating factor 1 receptor (Homo sapiens)
- Sequence (P07333 whole entry): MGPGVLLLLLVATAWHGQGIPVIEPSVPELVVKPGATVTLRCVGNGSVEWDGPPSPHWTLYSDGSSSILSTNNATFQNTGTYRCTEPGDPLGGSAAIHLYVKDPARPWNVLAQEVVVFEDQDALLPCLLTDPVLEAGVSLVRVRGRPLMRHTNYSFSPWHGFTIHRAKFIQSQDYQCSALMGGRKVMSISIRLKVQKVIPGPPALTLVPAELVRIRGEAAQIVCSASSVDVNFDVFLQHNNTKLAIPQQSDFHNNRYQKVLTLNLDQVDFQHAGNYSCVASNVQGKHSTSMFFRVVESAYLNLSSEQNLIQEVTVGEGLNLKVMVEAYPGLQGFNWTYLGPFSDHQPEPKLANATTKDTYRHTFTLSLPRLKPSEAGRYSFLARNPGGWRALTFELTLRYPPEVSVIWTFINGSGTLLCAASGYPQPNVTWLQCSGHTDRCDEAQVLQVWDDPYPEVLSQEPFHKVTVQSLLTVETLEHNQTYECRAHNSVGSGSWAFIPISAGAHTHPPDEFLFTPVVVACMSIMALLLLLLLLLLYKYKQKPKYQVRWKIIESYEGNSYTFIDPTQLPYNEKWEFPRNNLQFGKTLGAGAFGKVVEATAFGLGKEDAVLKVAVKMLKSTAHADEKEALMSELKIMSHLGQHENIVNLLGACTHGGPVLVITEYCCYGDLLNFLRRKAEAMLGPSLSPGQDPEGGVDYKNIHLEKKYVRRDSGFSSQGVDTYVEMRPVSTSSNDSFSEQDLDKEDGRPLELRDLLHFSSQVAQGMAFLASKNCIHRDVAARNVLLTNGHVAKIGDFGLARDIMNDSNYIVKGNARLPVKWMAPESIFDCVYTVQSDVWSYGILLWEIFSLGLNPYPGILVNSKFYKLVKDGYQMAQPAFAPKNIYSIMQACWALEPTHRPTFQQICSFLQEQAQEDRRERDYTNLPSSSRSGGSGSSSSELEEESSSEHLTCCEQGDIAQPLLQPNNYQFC
- assay_name: Inhibition of recombinant human His-tagged cytoplasmic CSF1R expressed in baculovirus expression system by Z'-LYTE assay
Give measured pIC50 for each item. Keep answers brief.
As a rule, pIC50 stands for the negative log10 of the concentration, concentration in M.

Qu. Which value of pIC50 has been reported for `Cc1sc(C(=O)N[C@@H]2[C@H](N)CCCC2(F)F)cc1-c1cnn2cc(Cl)cnc12` in the records?
Ans. 4.66

Qu. Would you mind telling me what pIC50 value was observed for Cn1cc(-c2cnc3c(-c4csc(C(=O)N[C@@H]5CCCC[C@@H]5N)c4)cnn3c2)cn1 (racemic) ?
Ans. 8.48

Qu. Consider the compound `O=C(NCC(F)(F)F)c1cc(-c2cnn3cc(-c4ccc(OCCN5CCCCC5)cc4)cnc23)cs1` and give its measured pIC50.
Ans. 7.39

Qu. Which pIC50 reading was recorded for the compound `Cn1cc(-c2cnc3c(-c4csc(C(=O)NCC(F)(F)F)c4)cnn3c2)cn1` ?
Ans. 7.00

---

- test_system: RAF proto-oncogene serine/threonine-protein kinase (Homo sapiens, UniProt P04049, Y340D/Y341D)
- Sequence (P04049 whole entry Y340D/Y341D): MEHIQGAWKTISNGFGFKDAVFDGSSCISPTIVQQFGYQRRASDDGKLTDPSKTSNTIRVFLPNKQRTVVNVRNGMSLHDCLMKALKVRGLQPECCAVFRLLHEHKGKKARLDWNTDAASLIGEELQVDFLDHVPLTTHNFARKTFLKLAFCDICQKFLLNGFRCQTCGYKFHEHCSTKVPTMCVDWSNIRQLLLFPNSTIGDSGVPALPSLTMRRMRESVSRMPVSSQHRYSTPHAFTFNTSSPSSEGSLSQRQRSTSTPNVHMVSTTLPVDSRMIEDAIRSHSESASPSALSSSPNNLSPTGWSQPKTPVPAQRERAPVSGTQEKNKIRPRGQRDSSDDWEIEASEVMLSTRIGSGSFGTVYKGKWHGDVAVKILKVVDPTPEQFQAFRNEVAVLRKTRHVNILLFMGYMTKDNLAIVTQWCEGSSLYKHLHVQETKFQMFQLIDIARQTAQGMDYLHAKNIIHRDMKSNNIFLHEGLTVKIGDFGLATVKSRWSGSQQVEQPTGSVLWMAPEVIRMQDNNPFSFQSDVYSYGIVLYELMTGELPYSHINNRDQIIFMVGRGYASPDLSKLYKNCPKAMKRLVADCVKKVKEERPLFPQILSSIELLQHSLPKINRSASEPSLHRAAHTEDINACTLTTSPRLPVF
- assay_name: Inhibition of recombinant human GST-tagged RAF1 Y340D/Y341D mutant expressed in baculovirus expression system by Z'-LYTE assay
recorded_metric: IC50 (nM)
Write down the numeric answer in nM and omit the unit.

Qu. // returns reported IC50 for input `Cc1sc(C(=O)N[C@@H]2[C@H](N)CCCC2(F)F)cc1-c1cnn2cc(Cl)cnc12`
Ans. 950

Qu. Param item = `O=C(NCC(F)(F)F)c1cc(-c2cnn3cc(-c4ccc(OCCN5CCCCC5)cc4)cnc23)cs1` ; retrieve measured IC50.
Ans. 630

Qu. Which IC50 value belongs to `Cn1cc(-c2cnc3c(-c4csc(C(=O)NCC(F)(F)F)c4)cnn3c2)cn1` ?
Ans. 560

Qu. Any idea what its IC50 is? The compound is Cn1cc(-c2cnc3c(-c4csc(C(=O)N[C@@H]5CCCC[C@@H]5N)c4)cnn3c2)cn1 (racemic)
Ans. 48

---

- test_system: Inhibitor of nuclear factor kappa-B kinase subunit beta (Homo sapiens)
- Sequence (O14920 whole entry): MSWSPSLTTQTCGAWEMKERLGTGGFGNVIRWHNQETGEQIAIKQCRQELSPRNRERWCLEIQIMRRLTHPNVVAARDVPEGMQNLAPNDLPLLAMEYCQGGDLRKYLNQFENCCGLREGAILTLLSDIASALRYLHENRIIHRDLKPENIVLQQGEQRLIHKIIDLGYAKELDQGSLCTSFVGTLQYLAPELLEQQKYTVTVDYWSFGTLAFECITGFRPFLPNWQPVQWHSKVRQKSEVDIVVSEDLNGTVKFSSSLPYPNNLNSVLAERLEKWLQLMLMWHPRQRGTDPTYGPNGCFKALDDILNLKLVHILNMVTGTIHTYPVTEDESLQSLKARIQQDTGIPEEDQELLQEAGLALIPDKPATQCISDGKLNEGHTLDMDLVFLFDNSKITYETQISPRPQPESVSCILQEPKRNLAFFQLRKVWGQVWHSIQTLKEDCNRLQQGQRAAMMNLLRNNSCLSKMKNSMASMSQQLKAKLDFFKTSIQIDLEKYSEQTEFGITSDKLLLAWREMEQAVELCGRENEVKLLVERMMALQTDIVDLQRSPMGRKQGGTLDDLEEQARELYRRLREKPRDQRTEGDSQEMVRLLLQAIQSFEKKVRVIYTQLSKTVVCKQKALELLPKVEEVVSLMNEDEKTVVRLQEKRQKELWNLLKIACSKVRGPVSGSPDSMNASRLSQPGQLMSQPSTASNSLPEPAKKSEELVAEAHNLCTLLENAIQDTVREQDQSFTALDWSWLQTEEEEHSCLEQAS
- assay_name: Inhibition of full-length recombinant human GST-tagged IKK-beta expressed in baculovirus expression system by Z'-LYTE assay
recorded_metric: pIC50
In simple prose, pIC50 is minus the logarithm base ten of a concentration in moles per litre.

Qu. GET /values?readout=pIC50&item= `Cc1sc(C(=O)N[C@@H]2[C@H](N)CCCC2(F)F)cc1-c1cnn2cc(Cl)cnc12`
Ans. 4.51

Qu. Find the recorded pIC50 belonging to `O=C(NCC(F)(F)F)c1cc(-c2cnn3cc(-c4ccc(OCCN5CCCCC5)cc4)cnc23)cs1` and report it.
Ans. 4.26
